These measurements were taken from patent EP4772193A1.

- systemName: T1, recombinant human soluble gpNMB (recombinant human gpNMB-FLAG-His) (human, UniProt Q14956 23-498)
- T1 sequence: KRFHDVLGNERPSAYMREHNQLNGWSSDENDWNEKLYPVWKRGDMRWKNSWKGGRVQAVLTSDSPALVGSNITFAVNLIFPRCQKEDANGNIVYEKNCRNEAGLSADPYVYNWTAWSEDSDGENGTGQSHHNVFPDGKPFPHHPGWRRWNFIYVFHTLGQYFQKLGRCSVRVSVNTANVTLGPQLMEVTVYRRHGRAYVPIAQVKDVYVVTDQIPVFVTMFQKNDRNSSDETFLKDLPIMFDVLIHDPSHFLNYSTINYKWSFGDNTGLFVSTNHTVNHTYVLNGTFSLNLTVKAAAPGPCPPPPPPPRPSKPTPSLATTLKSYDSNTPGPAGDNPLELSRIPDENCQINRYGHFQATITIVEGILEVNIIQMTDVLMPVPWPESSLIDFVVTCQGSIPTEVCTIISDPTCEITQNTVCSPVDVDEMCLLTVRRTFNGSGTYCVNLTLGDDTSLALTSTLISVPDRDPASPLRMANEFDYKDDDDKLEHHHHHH
- testName: antigen ELISA
Recorded measurements of pEC50, one per entry
# log scale: pEC50 equals minus log10 of the concentration in mol/L

Q: So what does the record say about pEC50 for hGPN06-1_H1L1 VH N63A (antibody, V domains shown) VH: QVQLVQSGAEVKKPGASVKVSCKASGYTFTDNWMGWVKQRPGQGLEWIGAIDPSDSFTNYNQAFKGRVTMTVDTSISTAYMELSRLRSDDSAVYFCTRSGYYGSPKLGGDYWGQGTLVTVSS VL: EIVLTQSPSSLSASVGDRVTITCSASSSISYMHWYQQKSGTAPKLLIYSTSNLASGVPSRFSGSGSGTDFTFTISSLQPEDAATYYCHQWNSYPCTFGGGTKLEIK ?
Ans: 9.36

Q: Moving on to hGPN06-1_H1L1 VH I51A (antibody, V domains shown) VH: QVQLVQSGAEVKKPGASVKVSCKASGYTFTDNWMGWVKQRPGQGLEWIGAADPSDSFTNYNQNFKGRVTMTVDTSISTAYMELSRLRSDDSAVYFCTRSGYYGSPKLGGDYWGQGTLVTVSS VL: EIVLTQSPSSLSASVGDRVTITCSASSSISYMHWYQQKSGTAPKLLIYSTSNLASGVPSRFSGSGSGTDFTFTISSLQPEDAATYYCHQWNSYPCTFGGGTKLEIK
Ans: 9.00

Q: Moving on to hGPN06-1_H1L1 VH G35A (antibody, V domains shown) VH: QVQLVQSGAEVKKPGASVKVSCKASGYTFTDNWMAWVKQRPGQGLEWIGAIDPSDSFTNYNQNFKGRVTMTVDTSISTAYMELSRLRSDDSAVYFCTRSGYYGSPKLGGDYWGQGTLVTVSS VL: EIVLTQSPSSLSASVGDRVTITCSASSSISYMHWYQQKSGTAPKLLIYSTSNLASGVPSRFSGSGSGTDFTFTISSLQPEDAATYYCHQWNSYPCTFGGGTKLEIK
Ans: 8.45

Q: Moving on to hGPN06-1_H1L1 VH T30A (antibody, V domains shown) VH: QVQLVQSGAEVKKPGASVKVSCKASGYTFADNWMGWVKQRPGQGLEWIGAIDPSDSFTNYNQNFKGRVTMTVDTSISTAYMELSRLRSDDSAVYFCTRSGYYGSPKLGGDYWGQGTLVTVSS VL: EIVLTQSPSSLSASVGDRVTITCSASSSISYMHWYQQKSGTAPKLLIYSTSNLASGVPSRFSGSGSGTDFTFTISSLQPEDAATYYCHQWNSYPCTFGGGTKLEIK
Ans: 8.69
